Please go through the items and note down their Covalent Binding Assay (% binding).
- system: recombinant kRas mutant (G12C; C51S; C80L; C118S) (Homo sapiens, UniProt P01116, C118S/C51S/C80L/G12C)
- assay procedure: Covalent binding assay, intact mass LC-MS
- run parameters: 25 μM protein, 25 μM compound, room temperature, 2 h
State the answer as a number, implicitly in %.

# lookup: Covalent Binding Assay (% binding) of C=CC(=O)N1CCC(c2cc3ncc(-c4ccc(F)cc4F)cc3c(=O)[nH]2)C1 (centres unmarked)
62

Which Covalent Binding Assay (% binding) value is on record for C=CC(=O)N1CCC(c2nc3cc(Cl)c(-c4cccc5ncccc45)cc3c(=O)[nH]2)C1 (centres unmarked) ?
41

Which Covalent Binding Assay (% binding) reading was recorded for the compound C=CC(=O)N1CCC(c2nc3ccc(-c4cccnc4N4CCOCC4)cc3c(=O)[nH]2)C1 (centres unmarked) ?
3

Look at this compound and give its reported Covalent Binding Assay (% binding). C=CC(=O)N1CCC(c2cc3cc(OC)c(-c4ncccc4F)cc3c(=O)[nH]2)C1 (centres unmarked)
0

Which Covalent Binding Assay (% binding) is listed for C=CC(=O)N1CCC(c2nc3ccc(-c4sc(C)nc4C)cc3c(=O)[nH]2)C1 (centres unmarked) ?
4

So what's the measured Covalent Binding Assay (% binding) for this one? C=CC(=O)N1CCC(c2cc3ncc(-c4cccc5ncccc45)cc3c(=O)[nH]2)C1 (centres unmarked)
13

# lookup: Covalent Binding Assay (% binding) of C=CC(=O)N1CCC(c2cc3ccc(-c4cc(F)cc(F)c4)cc3c(=O)[nH]2)C1 (centres unmarked)
0

# lookup: Covalent Binding Assay (% binding) of C=CC(=O)N1CCC(c2cc3ncc(-c4c(F)cccc4OC)cc3c(=O)[nH]2)C1 (centres unmarked)
52

Find the recorded Covalent Binding Assay (% binding) belonging to C=CC(=O)N1CCC(c2cc3cnc(-c4c(F)cccc4OC)cc3c(=O)[nH]2)C1 (centres unmarked) and report it.
32

Entry C=CC(=O)N1CCC(c2nc3ccc(-c4cccc5ncccc45)cc3c(=O)[nH]2)C1 (centres unmarked) : reported Covalent Binding Assay (% binding) = ?
22

// returns reported Covalent Binding Assay (% binding) for input C=CC(=O)N1CCC(c2cc3ccc(-c4cccc5ncccc45)cc3c(=O)[nH]2)C1 (centres unmarked)
20

Please report the recorded Covalent Binding Assay (% binding) for C=CC(=O)N1CCC(c2nc3cnc(-c4c(C)ccc5[nH]ncc45)cc3c(=O)[nH]2)C1 (centres unmarked) .
66

// returns reported Covalent Binding Assay (% binding) for input C=CC(=O)N1CCC(c2cc3cnc(-c4c(O)cccc4F)cc3c(=O)[nH]2)C1 (centres unmarked)
61

For the compound C=CC(=O)N1CCC(c2nc3ccc(-c4cncc5ccccc45)cc3c(=O)[nH]2)C1 (centres unmarked) , what Covalent Binding Assay (% binding) is on record?
4

For C=CC(=O)N1CCC(c2cc3ncc(-c4ccccc4F)cc3c(=O)[nH]2)C1 (centres unmarked) , what is its reported Covalent Binding Assay (% binding)?
69

What value of measured Covalent Binding Assay (% binding) is listed for C=CC(=O)N1CCC(c2nc3ccc(-c4c(F)cccc4OC)cc3c(=O)[nH]2)C1 (centres unmarked) ?
41

Reported Covalent Binding Assay (% binding), compound C=CC(=O)N1CCC(c2nc3ccc(-c4ccccc4CC)cc3c(=O)[nH]2)C1 (centres unmarked) : ____
52

---

- system: KRAS^G12C (Homo sapiens, UniProt P01116, G12C)
- assay procedure: KRAS G12C activation by SOS1cat assay (On-assay), HTRF
- run parameters: SOS1cat mediated loading of GST-KRAS G12C-GDP with fluorescent GTP analogue; 180 min preincubation; 20° C.; read-out: IC50 value biochemical KRAS^G12C activation assay
pIC50: −log10 of the molar value.
readout label: pIC50

What value of pIC50 has been reported for the following molecule? C=CC(=O)N1CCC(c2nc3cc(Cl)c(-c4c(F)cccc4OC)cc3c(=O)[nH]2)C1 (centres unmarked)
< 4.70

Give the measured pIC50 of C=CC(=O)N1CCC(c2cc3ncc(-c4sc(C)nc4C)cc3c(=O)[nH]2)C1 (centres unmarked) .
< 4.70

Fill in: pIC50 of C=CC(=O)N1CCC(c2nc3ccc(-c4cc(Cl)cc(C#N)c4)cc3c(=O)[nH]2)C1 (centres unmarked) is ___
< 4.70

Which pIC50 value is on record for C=CC(=O)N1CCC(c2nc3ccc(-c4sc(C)nc4C)cc3c(=O)[nH]2)C1 (centres unmarked) ?
< 4.70

Please report the recorded pIC50 for C=CC(=O)N1CCC(c2cc3ncc(-c4c(F)cccc4OC)cc3c(=O)[nH]2)C1 (centres unmarked) .
5.00

I have this molecule here, C=CC(=O)N1CCC(c2cc3ccc(-c4ccc(F)c(F)c4F)cc3c(=O)[nH]2)C1 (centres unmarked) , and I need its recorded pIC50.
< 5.15

What does the data say about its pIC50? Entry: C=CC(=O)N1CCC(c2nc3ccc(-c4c(O)cccc4F)nc3c(=O)[nH]2)C1 (centres unmarked)
< 4.70

Sample C=CC(=O)N1CCC(c2nc3ccc(-c4ccccc4CC)cc3c(=O)[nH]2)C1 (centres unmarked) — what was its pIC50?
5.14

---

Give pIC50 for every item shown.
- system: KRAS^G12C (Homo sapiens, UniProt P01116, G12C)
- assay procedure: KRAS G12C activation by SOS1cat assay (On-assay), HTRF
- run parameters: SOS1cat mediated loading of GST-KRAS G12C-GDP with fluorescent GTP analogue; 180 min preincubation; 20° C.; read-out: IC50 value biochemical KRAS^G12C activation assay
pIC50: −log10 of the molar value.

pIC50 for C=CC(=O)N1CCC(c2nc3ccc(-c4cccnc4N4CCOCC4)cc3c(=O)[nH]2)C1 (stereo not drawn) [Example 20] ?
< 4.70

Item C=CC(=O)N1CCC(c2cc3cnc(-c4c(F)cccc4OC)cc3c(=O)[nH]2)C1 (stereo not drawn) [Example 41] has what recorded pIC50?
< 4.70

Would you kindly share the measured pIC50 for C=CC(=O)N1CCC(c2cc3ncc(-c4cccnc4N4CCOCC4)cc3c(=O)[nH]2)C1 (stereo not drawn) [Example 35] ?
< 4.70

What value of pIC50 has been recorded for this entry: C=CC(=O)N1CCC(c2nc3cc(Cl)c(-c4ccc(F)cc4F)cc3c(=O)[nH]2)C1 (stereo not drawn) [Example 23]
< 4.70

What does the data say about its pIC50? Entry: C=CC(=O)N1CCC(c2nc3cc(Cl)c(-c4cccc5ncccc45)cc3c(=O)[nH]2)C1 (stereo not drawn) [Example 26]
< 4.72

So what does the record say about pIC50 for C=CC(=O)N1CCC(c2cc3ccc(-c4ccc(F)c(OCC)c4F)cc3c(=O)[nH]2)C1 (stereo not drawn) [Example 6] ?
< 4.70

So what's the measured pIC50 for this one? C=CC(=O)N1CCC(c2cc3ccc(-c4cccc5ncccc45)cc3c(=O)[nH]2)C1 (stereo not drawn) [Example 2]
< 5.05

What value of pIC50 has been recorded for this entry: C=CC(=O)N1CCC(c2cc3ncc(-c4ccccc4CC)cc3c(=O)[nH]2)C1 (stereo not drawn) [Example 33]
5.17

Request the reported pIC50 associated with C=CC(=O)N1CCC(c2cc3cc(Cl)c(-c4c(O)cccc4F)cc3c(=O)[nH]2)C1 (stereo not drawn) [Example 27]
4.80

Query (molecule): C=CC(=O)N1CCC(c2nc3ccc(-c4c(O)cccc4F)cc3c(=O)[nH]2)C1 (stereo not drawn) [Example 17] ; field requested: pIC50
5.31

What value of pIC50 has been recorded for this entry: C=CC(=O)N1CCC(c2cc3ncc(-c4cc(O)ccc4F)cc3c(=O)[nH]2)C1 (stereo not drawn) [Example 36]
5.57

Can you look up the measured pIC50 of C=CC(=O)N1CCC(c2nc3ccc(-c4cncc5ccccc45)cc3c(=O)[nH]2)C1 (stereo not drawn) [Example 18] for me?
< 4.70

Bench note: what pIC50 did C=CC(=O)N1CCC(c2cc3cc(O)c(-c4ncccc4F)cc3c(=O)[nH]2)C1 (stereo not drawn) [Example 10] show?
< 4.70

GET /values?readout=pIC50&item= C=CC(=O)N1CCC(c2nc3ccc(-c4ccc(F)cc4F)cc3c(=O)[nH]2)C1 (stereo not drawn) [Example 13]
5.08

Give the measured pIC50 of C=CC(=O)N1CCC(c2cc3ncc(-c4ccc(F)c(O)c4)cc3c(=O)[nH]2)C1 (stereo not drawn) [Example 37] .
< 4.70

Can you share its pIC50? I mean this molecule: C=CC(=O)N1CCC(c2nc3ccc(-c4cccc5ncccc45)cc3c(=O)[nH]2)C1 (stereo not drawn) [Example 14]
< 4.70

Return reported pIC50; argument: C=CC(=O)N1CCC(c2cc3ncc(-c4ccc(F)cc4F)cc3c(=O)[nH]2)C1 (stereo not drawn) [Example 31]
< 4.85

Return reported pIC50; argument: C=CC(=O)N1CCC(c2cc3ncc(-c4cccc5ncccc45)cc3c(=O)[nH]2)C1 (stereo not drawn) [Example 32]
< 4.70
